B1: Intersectin-1, residues 909 to 971; numbered along this chain, Q15811 (parent)
chain: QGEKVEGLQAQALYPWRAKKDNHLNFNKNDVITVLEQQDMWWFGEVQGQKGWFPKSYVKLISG

# Variants of: B1
# assayOverview: abundance fitness (aPCA) (normalised: wild type 0, dead -1); higher = more abundant; growth selection in yeast, the domain comes from the species named
# conditionsUsed: Homo sapiens
# thresholds on abundance fitness define classes: lo: < -0.4; med: ≥ -0.4 and < -0.2; hi: ≥ -0.2

Record excerpt, results attached:
sequenceString | category
QGEKVEGLQAQALYPWRAKKDNHLNFNKNDVITVLEQQDMWWFGEVQGQKGWFRKSYVKLISG [P54R] | lo
QGEKVEGLQAQALYPWRAKKDNPLNFNKNDVITVLEQQDMWWFGEVQGQKGWFPKSYVKLISG [H23P] | lo
QGEKVEGLQAQALYPWRAKKDNHLNFNKNDVIWVLEQQDMWWFGEVQGQKGWFPKSYVKLISG [T33W] | hi
QGEKVEGLQAQALYPWRAKKDNHLNFNKNDVITVLEQQDMWWEGEVQGQKGWFPKSYVKLISG [F43E] | lo
QGEKVEGLQAQALYPWRAKKDNHLNFNKNDVITVLEQQDMWWFGEVYGQKGWFPKSYVKLISG [Q47Y] | hi

Input: Into which category would you place QGEKVEGLQAQALYPWRAKKDNHLNVNKNDVITVLEQQDMWWFGEVQGQKGWFPKSYVKLISG [F26V] ?
Output: med

Input: Into which category would you place QGEKVEGLQAQALYPWRAKKDNHLNFNKNDVITWLEQQDMWWFGEVQGQKGWFPKSYVKLISG [V34W] ?
Output: lo

Input: Into which category would you place QGEKVEGLQAQALYPWRAKKDNHLNFNKNDEITVLEQQDMWWFGEVQGQKGWFPKSYVKLISG [V31E] ?
Output: hi

Input: Into which category would you place QGEKVEGLQAQALYPWRAKKDNHLNFNKEDVITVLEQQDMWWFGEVQGQKGWFPKSYVKLISG [N29E] ?
Output: hi

Input: Into which category would you place QGEKVEGLQAQALYPWRAKWDNHLNFNKNDVITVLEQQDMWWFGEVQGQKGWFPKSYVKLISG [K20W] ?
Output: hi
